Values compiled from paper PMC12703733.

# assay name: in vitro
# Type: in vitro ADME
# test conditions: isolated enzyme trypsin, pH 7.2
measured attribute: remaining at 24 h, 200 μM

Per the record, CC[C@H](C)[C@H](NC(=O)[C@H](CCCNC(=N)N)NC(=O)[C@H]1CCCCNC(=N)NCCCC[C@H](NC(=O)[C@H](Cc2ccccc2)NC(=O)[C@H](Cc2c[nH]c3ccccc23)NC(=O)[C@@H]2CCCN2C(=O)[C@@H](NC(=O)[C@@H](N)Cc2ccccc2)C(C)C)C(=O)N[C@@H](CCCCN)C(=O)N[C@@H](Cc2ccccc2)C(=O)N[C@H](CC(C)C)C(=O)N1)C(=O)N[C@@H](CC(C)C)C(N)=O [Peptide 12, FVPWF{KKFlk}RIL] has remaining at 24 h, 200 μM of ~35%

###

# Type: cell-based, human
# test conditions: human, Cell viability (%)
Bridge positions count the residues as written; N and C are the ends. Square brackets hold non-standard residues; d marks the D form. Peptide text beside a SMILES is read from it. * marks the point of attachment. Propanoyl(3-guanidino) = N=C(N)NCCC(=O)*
measured attribute: viability at 24 h, 6.25 µM (%)
Reply numerically in %, unit not repeated.

Reported viability at 24 h, 6.25 µM for CC[C@H](C)[C@H](NC(=O)[C@H](CCCNC(=N)N)NC(=O)[C@H]1CCC(=O)NCCCC[C@H](NC(=O)[C@H](Cc2ccccc2)NC(=O)[C@H](Cc2c[nH]c3ccccc23)NC(=O)[C@@H]2CCCN2C(=O)[C@@H](NC(=O)[C@H](Cc2ccccc2)NC(=O)CCNC(=N)N)C(C)C)C(=O)N[C@@H](CCCCN)C(=O)N[C@@H](Cc2ccccc2)C(=O)N[C@H](CC(C)C)C(=O)N1)C(=O)N[C@@H](CC(C)C)C(N)=O [Peptide 4, guanidino-βAla-FVPWF[KKFle]RIL] ({Propanoyl(3-guanidino)}-FVPWFKKF[dL][dE]RIL-NH2; lactam 6-10) was 93

Notebook: CC[C@H](C)[C@H](NC(=O)[C@H](CCCNC(=N)N)NC(=O)[C@@H]1CCCCNC(=N)NCCCC[C@H](NC(=O)[C@H](Cc2ccccc2)NC(=O)[C@H](Cc2c[nH]c3ccccc23)NC(=O)[C@@H]2CCCN2C(=O)[C@@H](NC(=O)[C@@H](N)Cc2ccccc2)C(C)C)C(=O)N[C@@H](CCCCN)C(=O)N[C@@H](Cc2ccccc2)C(=O)N[C@H](CC(C)C)C(=O)N1)C(=O)N[C@@H](CC(C)C)C(N)=O [Peptide 11, FVPWF{KKFlK}RIL] , viability at 24 h, 6.25 µM read as 97

###

# Format: cell-based, human
# test conditions: Cell viability (%)
# Experimental: For the evaluation of peptides’ cytotoxicity, the human immortalized keratinocytes (HaCaT cells), purchased from AddexBio (San Diego, CA, USA), and BEAS-2B were used. […] The purple formazan crystals were dissolved using acidified 2-propanol and a microplate reader (Infinite M200; Tecan, Salzburg, Austria) was used to measure the absorbance of each well at 570 nm. […]
Bridge positions count the residues as written; N and C are the ends. Square brackets hold non-standard residues; d marks the D form. Peptide text beside a SMILES is read from it.
measured attribute: viability at 12.5 µM (%)
Numeric only. Scale: %

The recorded viability at 12.5 µM for entry CC[C@H](C)[C@H](NC(=O)[C@H](CCCNC(=N)N)NC(=O)[C@H]1CCC(=O)NCCCC[C@H](NC(=O)[C@H](Cc2ccccc2)NC(=O)[C@H](Cc2c[nH]c3ccccc23)NC(=O)[C@@H]2CCCN2C(=O)[C@@H](NC(=O)[C@@H](N)Cc2ccccc2)C(C)C)C(=O)N[C@@H](CCCCN)C(=O)N[C@@H](Cc2ccccc2)C(=O)N[C@H](CC(C)C)C(=O)N1)C(=O)N[C@@H](CC(C)C)C(N)=O [Peptide 2, FVPWF[KKFle]RIL] (H-FVPWFKKF[dL][dE]RIL-NH2; lactam 6-10) equals 95

###

# Format: cell-based, human
# test conditions: human, Cell viability (%)
Bridge positions count the residues as written; N and C are the ends. Square brackets hold non-standard residues; d marks the D form. Peptide text beside a SMILES is read from it. Phe(4-guanidino) = N=C(N)Nc1ccc(C[C@H](N)C(=O)O)cc1
measured attribute: viability at 2 h, 3.12 µM
Quick note: unit goes after the number.

Lab note: CC[C@H](C)[C@H](NC(=O)[C@H](CCCNC(=N)N)NC(=O)[C@H]1CCCCNC(=N)NCCCC[C@H](NC(=O)[C@H](Cc2ccccc2)NC(=O)[C@H](Cc2c[nH]c3ccccc23)NC(=O)[C@@H]2CCCN2C(=O)[C@@H](NC(=O)[C@@H](N)Cc2ccccc2)C(C)C)C(=O)N[C@@H](CCCCN)C(=O)N[C@@H](Cc2ccccc2)C(=O)N[C@H](CC(C)C)C(=O)N1)C(=O)N[C@@H](CC(C)C)C(N)=O [Peptide 12, FVPWF{KKFlk}RIL] gave viability at 2 h, 3.12 µM of 101%

According to the records, this molecule CC[C@H](C)[C@H](NC(=O)[C@H](CCCNC(=N)N)NC(=O)[C@H]1CCC(=O)NCCCC[C@H](NC(=O)[C@H](Cc2ccccc2)NC(=O)[C@H](Cc2c[nH]c3ccccc23)NC(=O)[C@@H]2CCCN2C(=O)[C@@H](NC(=O)[C@@H](N)Cc2ccc(NC(=N)N)cc2)C(C)C)C(=O)N[C@@H](CCCCN)C(=O)N[C@@H](Cc2ccccc2)C(=O)N[C@H](CC(C)C)C(=O)N1)C(=O)N[C@@H](CC(C)C)C(N)=O [Peptide 6, (p-guanidino)FVPWF[KKFle]RIL] (H-[Phe(4-guanidino)]VPWFKKF[dL][dE]RIL-NH2; lactam 6-10) displays viability at 2 h, 3.12 µM of 102%

###

# Assay type: cell-based, human
# test conditions: human, Cell viability (%)
Bridge positions count the residues as written; N and C are the ends. Square brackets hold non-standard residues; d marks the D form. Peptide text beside a SMILES is read from it.
measured attribute: viability at 2 h, 12.5 µM (%)
Please respond with the number in % and leave the unit unwritten.

Briefly, viability at 2 h, 12.5 µM measured for CC[C@H](C)[C@H](NC(=O)[C@H](CCCNC(=N)N)NC(=O)[C@H]1CCC(=O)NCCCC[C@H](NC(=O)[C@H](Cc2ccccc2)NC(=O)[C@H](Cc2c[nH]c3ccccc23)NC(=O)[C@@H]2CCCN2C(=O)[C@@H](NC(=O)[C@@H](N)Cc2ccccc2)C(C)C)C(=O)N[C@@H](CCCNC(=N)N)C(=O)N[C@@H](Cc2ccccc2)C(=O)N[C@H](CC(C)C)C(=O)N1)C(=O)N[C@@H](CC(C)C)C(N)=O [Peptide 9, FVPWF[KRFle]RIL] (H-FVPWFKRF[dL][dE]RIL-NH2; lactam 6-10) : 98

###

# Format: cell-based, human
# test conditions: human, Cell viability (%)
Bridge positions count the residues as written; N and C are the ends. Square brackets hold non-standard residues; d marks the D form. Peptide text beside a SMILES is read from it. * marks the point of attachment. Pro(cis-4-guanidino) = NC(N)=N[C@@H]1CN[C@H](C(=O)O)C1; Phe(4-guanidino) = N=C(N)Nc1ccc(C[C@H](N)C(=O)O)cc1; Butanoyl(4-guanidino) = N=C(N)NCCCC(=O)*
measured attribute: viability at 2 h, 6.25 µM (%)
Response body: numeric value in %, unit text excluded.

Notebook: CC[C@H](C)[C@H](NC(=O)[C@H](CCCNC(=N)N)NC(=O)[C@@H]1CCCNC(=N)NCCC[C@H](NC(=O)[C@H](Cc2ccccc2)NC(=O)[C@H](Cc2c[nH]c3ccccc23)NC(=O)[C@@H]2CCCN2C(=O)[C@@H](NC(=O)[C@@H](N)Cc2ccccc2)C(C)C)C(=O)N[C@@H](CCCCN)C(=O)N[C@@H](Cc2ccccc2)C(=O)N[C@H](CC(C)C)C(=O)N1)C(=O)N[C@@H](CC(C)C)C(N)=O [Peptide 13, FVPWF{OrnKFlOrn}RIL] , viability at 2 h, 6.25 µM read as 104

response.value for CC[C@H](C)[C@H](NC(=O)[C@H](CCCNC(=N)N)NC(=O)[C@H]1CCC(=O)NCCCC[C@H](NC(=O)[C@H](Cc2ccccc2)NC(=O)[C@H](Cc2c[nH]c3ccccc23)NC(=O)[C@@H]2CCCN2C(=O)[C@@H](NC(=O)[C@H](Cc2ccccc2)NC(=O)CCCNC(=N)N)C(C)C)C(=O)N[C@@H](CCCCN)C(=O)N[C@@H](Cc2ccccc2)C(=O)N[C@H](CC(C)C)C(=O)N1)C(=O)N[C@@H](CC(C)C)C(N)=O [Peptide 5, guanidino-GABA-FVPWF[KKFle]RIL] ({Butanoyl(4-guanidino)}-FVPWFKKF[dL][dE]RIL-NH2; lactam 6-10) (field: viability at 2 h, 6.25 µM) = 126

Please fill in: viability at 2 h, 6.25 µM reported for CC[C@H](C)[C@H](NC(=O)[C@H](CCCNC(=N)N)NC(=O)[C@H]1CCC(=O)NCCCC[C@H](NC(=O)[C@H](Cc2ccccc2)NC(=O)[C@H](Cc2c[nH]c3ccccc23)NC(=O)[C@@H]2CCCN2C(=O)[C@@H](NC(=O)[C@@H](N)Cc2ccccc2)C(C)C)C(=O)N[C@@H](CCCNC(=N)N)C(=O)N[C@@H](Cc2ccccc2)C(=O)N[C@H](CC(C)C)C(=O)N1)C(=O)N[C@@H](CC(C)C)C(N)=O [Peptide 9, FVPWF[KRFle]RIL] (H-FVPWFKRF[dL][dE]RIL-NH2; lactam 6-10) = 106

According to the records, this compound CC[C@H](C)[C@H](NC(=O)[C@H](CCCNC(=N)N)NC(=O)[C@H]1CCC(=O)NCCCC[C@H](NC(=O)[C@H](Cc2ccccc2)NC(=O)[C@H](Cc2c[nH]c3ccccc23)NC(=O)[C@@H]2CCCN2C(=O)[C@@H](NC(=O)[C@@H](N)Cc2ccccc2)C(C)C)C(=O)N[C@@H](CCCCN)C(=O)N[C@@H](Cc2ccc(NC(=N)N)cc2)C(=O)N[C@H](CC(C)C)C(=O)N1)C(=O)N[C@@H](CC(C)C)C(N)=O [Peptide 10, FVPWF[KK(p-guanidino)Fle]RIL] (H-FVPWFKK[Phe(4-guanidino)][dL][dE]RIL-NH2; lactam 6-10) displays viability at 2 h, 6.25 µM of 110

Reported viability at 2 h, 6.25 µM of CC[C@H](C)[C@H](NC(=O)[C@H](CCCNC(=N)N)NC(=O)[C@H]1CCC(=O)NCCCC[C@H](NC(=O)[C@H](Cc2ccccc2)NC(=O)[C@H](Cc2c[nH]c3ccccc23)NC(=O)[C@@H]2C[C@H](NC(=N)N)CN2C(=O)[C@@H](NC(=O)[C@@H](N)Cc2ccccc2)C(C)C)C(=O)N[C@@H](CCCCN)C(=O)N[C@@H](Cc2ccccc2)C(=O)N[C@H](CC(C)C)C(=O)N1)C(=O)N[C@@H](CC(C)C)C(N)=O [Peptide 7, FV(4-guanidino)PWF[KKFle]RIL] (H-FV[Pro(cis-4-guanidino)]WFKKF[dL][dE]RIL-NH2; lactam 6-10) : 100

Lookup result for CC[C@H](C)[C@H](NC(=O)[C@H](CCCNC(=N)N)NC(=O)[C@H]1CCCCNC(=N)NCCCC[C@H](NC(=O)[C@H](Cc2ccccc2)NC(=O)[C@H](Cc2c[nH]c3ccccc23)NC(=O)[C@@H]2CCCN2C(=O)[C@@H](NC(=O)[C@@H](N)Cc2ccccc2)C(C)C)C(=O)N[C@@H](CCCCN)C(=O)N[C@@H](Cc2ccccc2)C(=O)N[C@H](CC(C)C)C(=O)N1)C(=O)N[C@@H](CC(C)C)C(N)=O [Peptide 12, FVPWF{KKFlk}RIL] ; measured viability at 2 h, 6.25 µM: 103

Record CC[C@H](C)[C@H](NC(=O)[C@H](CCCNC(=N)N)NC(=O)[C@H]1CCC(=O)NCCCC[C@H](NC(=O)[C@H](Cc2ccc(NC(=N)N)cc2)NC(=O)[C@H](Cc2c[nH]c3ccccc23)NC(=O)[C@@H]2CCCN2C(=O)[C@@H](NC(=O)[C@@H](N)Cc2ccccc2)C(C)C)C(=O)N[C@@H](CCCCN)C(=O)N[C@@H](Cc2ccccc2)C(=O)N[C@H](CC(C)C)C(=O)N1)C(=O)N[C@@H](CC(C)C)C(N)=O [Peptide 8, FVPW(p-guanidino)F[KKFle]RIL] (H-FVPW[Phe(4-guanidino)]KKF[dL][dE]RIL-NH2; lactam 6-10) , field viability at 2 h, 6.25 µM: 112

Reported viability at 2 h, 6.25 µM ( CC[C@H](C)[C@H](NC(=O)[C@H](CCCNC(=N)N)NC(=O)[C@H]1CCC(=O)NCCCC[C@H](NC(=O)[C@H](Cc2ccccc2)NC(=O)[C@H](Cc2c[nH]c3ccccc23)NC(=O)[C@@H]2CCCN2C(=O)[C@@H](NC(=O)[C@@H](N)Cc2ccc(NC(=N)N)cc2)C(C)C)C(=O)N[C@@H](CCCCN)C(=O)N[C@@H](Cc2ccccc2)C(=O)N[C@H](CC(C)C)C(=O)N1)C(=O)N[C@@H](CC(C)C)C(N)=O [Peptide 6, (p-guanidino)FVPWF[KKFle]RIL] (H-[Phe(4-guanidino)]VPWFKKF[dL][dE]RIL-NH2; lactam 6-10) ) = 101
